Assay summary: Acute oral toxicity (mortality, LD50) in mice
Assay type: in vivo, mouse (Swiss-Webster)
Protocol conditions: mouse, in vivo, male Swiss-Webster mice, 21 days
Quantity kind: LD50 at 504 h

For the compound shown here, CCCC(=O)OCC1(O)OC(C2CC(C)C(C3(C)CCC(C4(C)CCC5(CC(O)C(C)C(C(C)C(OC(=O)CC)C(C)C(=O)O)O5)O4)O3)O2)C(C)CC1C (stereo not shown) [L. C4, monobutyrate of laidlomycin] , give the reported LD50 at 504 h. > 200 mg/kg

====

System: rumen contents (lactic acid accumulation)
Assay summary: Inhibition of lactic acid accumulation, second batch culture fermentation of rumen contents with glucose
Type: cell-based, bovine (rumen fistulated)
Protocol conditions: Table 8; .313 μg/ml; 6 h, 39° C.; 0 μg/ml: 40.47
Quantity kind: Lactic Acid Accumulation (μ mol/ml)
Kindly provide the numeric value in μ mol/ml only, without the unit symbol.

Compound: CCC(=O)OC(C(C)C(=O)O)C(C)C1OC2(CCC(C)(C3CCC(C)(C4OC(C5OC(O)(COC(=O)C6CC6)C(C)CC5C)CC4C)O3)O2)CC(O)C1C (stereo not drawn) [Cyclopropylcarboxylate, laidlomycin cyclopropylcarboxylate]
Lactic Acid Accumulation (μ mol/ml): 15.54
--
Compound: CCC(=O)OC(C(C)C(=O)O)C(C)C1OC2(CCC(C)(C3CCC(C)(C4OC(C5OC(O)(COC(C)=O)C(C)CC5C)CC4C)O3)O2)CC(O)C1C (stereo not drawn) [L. C2]
Lactic Acid Accumulation (μ mol/ml): 41.19

For the next question, use this compound.
For the compound shown here, CCCCCCCCCCCCCCCCCC(=O)OCC1(O)OC(C2CC(C)C(C3(C)CCC(C4(C)CCC5(CC(O)C(C)C(C(C)C(OC(=O)CC)C(C)C(=O)O)O5)O4)O3)O2)C(C)CC1C (stereo not drawn) [L. C18, laidlomycin stearate] , give the reported Lactic Acid Accumulation (μ mol/ml). 50.29
